B1: KCNA3 (parent)
chain: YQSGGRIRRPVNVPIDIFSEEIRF

- Variants of: B1
- assay: protein stability index of a GFP-peptide fusion (GPS, HEK-293T) (PSI 1-6); higher = more stable;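 note: lentivirally expressed fusions sorted by FACS into six bins by GFP to DsRed ratio, PSI derived from sequencing read proportions per bin multiplied by bin number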
- condition.summary: c terminus: a fixed tail appended
Reported protein stability index values for the following variants.
The reply should be a number, written without any unit.

Query (variant): YQSGGRIRRPVNVPIDIFSEMIRF ; field requested: protein stability index
1.87

Query (variant): YQSGGRIRRPVNVPIDISSEEIRF ; field requested: protein stability index
2.8

Query (variant): YQSGGRIRRPVNVPIDIFSEESRF ; field requested: protein stability index
2.29

Query (variant): YQSRGRIRRPVNVPIDIFSEEIRF ; field requested: protein stability index
2.15

Query (variant): YQSGGRITRPVNVPIDIFSEEIRF ; field requested: protein stability index
2.07

Query (variant): YGSGGRIRRPVNVPIDIFSEEIRF ; field requested: protein stability index
2.7

Query (variant): YNSGGRIRRPVNVPIDIFSEEIRF ; field requested: protein stability index
2.52

Query (variant): YQSGGRIRRPVNVPINIFSEEIRF ; field requested: protein stability index
2.01

Query (variant): YQSGGRIRRPVNGPIDIFSEEIRF ; field requested: protein stability index
2.31

Query (variant): YQSGGRIRRPVNVPIDIFSCEIRF ; field requested: protein stability index
2.19

Query (variant): YQSGGRIRRPVNVPIDIFSEEYRF ; field requested: protein stability index
1.8
